Tested on: CD2F1 mice, L1210 leukemia ip, survival T/C
Assay: NCI In Vivo Anticancer Drug Screen. Data for tumor model L1210 Leukemia (intraperitoneal) in CD2F1 (CDF1) mice
Conditions: endpoint: mean survival time; dose: 200.0 mg/kg/injection; schedule: Q01DX009 (ip); vehicle: saline with Tween-80; higher = longer survival
Toxic doses and inconclusive results are not listed.
reportedEndpoint: T/C

# chemicalSmiles, T/C
measured = [
    ("CCCCCCCCCCCC(=O)c1ccccc1", "102 % of control"),
]

Task: What T/C appears in the records for this molecule with CD2F1 mice, L1210 leukemia ip, survival T/C? CC#CC(=O)OC
Output: 96 % of control

Task: Moving on to the next molecule: COC(=O)C1CC[N-]CC1.COC(=O)C1CC[N-]CC1.[Cl][Pt+2][Cl]
Output: 114 % of control

Task: Moving on to the next molecule: O=C1/C(=C/c2ccccc2)Cc2ccccc21
Output: 91 % of control

Task: Moving on to the next molecule: c1ccc2c(CN3CC3)c[nH]c2c1
Output: 112 % of control

* * *

Test system: CD2F1 mice, L1210 leukemia ip, survival T/C
Test: NCI In Vivo Anticancer Drug Screen. Data for tumor model L1210 Leukemia (intraperitoneal) in CD2F1 (CDF1) mice
Details: endpoint: mean survival time; dose: 50.0 mg/kg/injection; schedule: Q04DX002 (ip); vehicle: saline with Tween-80; higher = longer survival
Inconclusive results and toxic doses are left out.
reportedEndpoint: T/C

// solved cases for T/C follow
# compound, studyTarget, testResult
rows = [
    ("N#CC(c1c[nH]c2ccccc12)N1CCOCC1 (configuration not stated)", "CD2F1 mice, L1210 leukemia ip, survival T/C", "100 % of control"),
    ("CC(=O)NC1C(OC(C)=O)OC(COC(c2ccccc2)(c2ccccc2)c2ccccc2)C(O)C1OC(C)=O (configuration not stated)", "CD2F1 mice, L1210 leukemia ip, survival T/C", "91 % of control"),
    ("CC(=O)OC1CCC2(C)C(CCC3(C)C2CCC2C4C5OC(=O)C4(CCC5(C)C)CCC23C)C1(C)C (configuration not stated)", "CD2F1 mice, L1210 leukemia ip, survival T/C", "88 % of control"),
]

Task: Value lookup for T/C; key = CC(=O)OC1(c2ccccc2)CC(=O)C=C1c1ccccc1 (configuration not stated)
Output: 91 % of control

Task: Moving on to the next compound: CC1CCOC(c2ccccc2)O1 (configuration not stated)
Output: 102 % of control

Task: Moving on to the next compound: CCCCCCCCCCCCOP(OCC)OCCCCCCCCCCCC
Output: 101 % of control

Task: Moving on to the next compound: COc1ccc(NC(=O)Oc2ccccc2C(C)C)cc1
Output: 111 % of control

* * *

Tested on: CD2F1 mice, L1210 leukemia ip, survival T/C
Assay: NCI In Vivo Anticancer Drug Screen. Data for tumor model L1210 Leukemia (intraperitoneal) in CD2F1 (CDF1) mice
Conditions: endpoint: mean survival time; dose: 100.0 mg/kg/injection; schedule: Q01DX009 (ip); vehicle: saline with Tween-80; higher = longer survival
Inconclusive results and toxic doses are left out.
reportedEndpoint: T/C

// solved cases for T/C follow
# chemicalSmiles, T/C
rows = [
    ("CCCCCCCCCCCCCCCCCCNC(=O)Nc1ccc(C)c(C)c1", "104 % of control"),
    ("O=CNc1cccc(Cl)c1", "96 % of control"),
    ("O=C(NC1c2ccccc2-c2ccccc21)C(F)(F)F", "96 % of control"),
]

As a next step, examine the compound that follows.
Task: Value lookup for T/C; key = CC(=O)C(C(C)=O)C(c1ccccc1Cl)C(C(C)=O)C(C)=O
Output: 98 % of control

* * *

Known T/C of a selection of molecules
Test system: CD2F1 mice, L1210 leukemia ip, survival T/C
Assay: NCI In Vivo Anticancer Drug Screen. Data for tumor model L1210 Leukemia (intraperitoneal) in CD2F1 (CDF1) mice
Conditions: endpoint: mean survival time; dose: 200.0 mg/kg/injection; schedule: Q01DX009 (ip); vehicle: saline with Tween-80; higher = longer survival
Toxic doses and inconclusive results are not listed.

// solved cases for T/C follow
# molecule, reportedEndpoint, testResult
data = [
    ("C=C(Br)CNS(=O)(=O)c1ccc(OC)cc1", "T/C", "97 % of control"),
    ("C1=CC2c3ccccc3C1C1C=CC21 (centres undefined)", "T/C", "108 % of control"),
    ("c1ccc(C2=NN(c3ccccc3)CN(c3ccccc3)N2)cc1", "T/C", "97 % of control"),
]

Task: Value lookup for T/C; key = O=C(O)CC(C(=O)O)c1ccc([N+](=O)[O-])cc1 (centres undefined)
Output: 93 % of control

Task: Moving on to the next molecule: O=C(N/N=C\c1ccc(Cl)cc1)c1ccccc1
Output: 95 % of control

Task: Moving on to the next molecule: CCC1(CC)CCC(Br)C(Br)C1 (centres undefined)
Output: 94 % of control

Task: Moving on to the next molecule: O=C(O)/C=C/c1ccco1
Output: 94 % of control

Task: Moving on to the next molecule: COc1ccc(/C=N/NC(=O)CNC(=O)Nc2cccc([N+](=O)[O-])c2)cc1
Output: 93 % of control

Task: Moving on to the next molecule: CC(C)OC(N)=O
Output: 103 % of control

Task: Moving on to the next molecule: CCOC(=O)C(CCC#N)(CCC#N)C(=O)OCC
Output: 94 % of control

Task: Moving on to the next molecule: CC(=O)c1ccc(NCN2C(=O)c3ccccc3C2=O)cc1
Output: 98 % of control

Task: Moving on to the next molecule: CC1CCc2c(ccc3ccccc23)C1=O (centres undefined)
Output: 95 % of control

Task: Moving on to the next molecule: NC(=S)N/N=C/c1ccc2c(c1)OCO2
Output: 98 % of control

Task: Moving on to the next molecule: CCOC(=O)C(O)c1ccccc1 (centres undefined)
Output: 96 % of control

* * *

Tested on: CD2F1 mice, L1210 leukemia ip, survival T/C
Experiment: NCI In Vivo Anticancer Drug Screen. Data for tumor model L1210 Leukemia (intraperitoneal) in CD2F1 (CDF1) mice
Settings: endpoint: mean survival time; dose: 100.0 mg/kg/injection; schedule: Q04DX003 (ip); vehicle: saline with Tween-80; higher = longer survival
Inconclusive results and toxic doses are left out.
reportedEndpoint: T/C

// solved cases for T/C follow
# compound, T/C
measured = [
    ("O=C(O)c1cccc(-c2c3ccc(=O)cc-3oc3cc(O)ccc23)c1", "96 % of control"),
    ("CC(=O)C1CCC2C3CCC4=CC(=O)CC4(C)C3CCC12C (stereo not given)", "113 % of control"),
    ("O=C(Nc1ccc(NC(=O)c2ccccc2)c2ccccc12)c1ccccc1", "92 % of control"),
    ("COC(=O)C(C)C1(O)CCCCC1 (stereo not given)", "97 % of control"),
    ("c1ccc(-c2nnc(-c3ccccc3)nn2)cc1", "98 % of control"),
]

Task: Value lookup for T/C; key = CC(=O)NC(C(=O)O)C(C)c1c[nH]c2ccccc12 (stereo not given)
Output: 97 % of control

Task: Moving on to the next compound: COC(=O)c1cc(Br)c(I)c([N+](=O)[O-])c1
Output: 95 % of control

Task: Moving on to the next compound: CC(C)OC(CCCl)c1ccc(Cl)cc1 (stereo not given)
Output: 94 % of control

Task: Moving on to the next compound: Cc1ccc(S(=O)(=O)OCCCCCCCCCCOS(=O)(=O)c2ccc(C)cc2)cc1
Output: 91 % of control

Task: Moving on to the next compound: CC(=O)C(C(c1ccccc1)C1CCCc2ccccc21)N1CCOCC1 (stereo not given)
Output: 103 % of control

* * *

System: CD2F1 mice, L1210 leukemia ip, survival T/C
Experiment: NCI In Vivo Anticancer Drug Screen. Data for tumor model L1210 Leukemia (intraperitoneal) in CD2F1 (CDF1) mice
Settings: endpoint: mean survival time; dose: 200.0 mg/kg/injection; schedule: Q01DX001 (ip); vehicle: saline with Tween-80
Toxic doses and inconclusive results are not listed. Rule for the calls: active = survival T/C of 150% or more; inactive = T/C below 125% in these data.
Return exactly one item of T = active, F = inactive

# compound, studyTarget, assignedCategory
rows = [
    ("CC(=O)OC1C(NC(=O)N(CCCl)N=O)C(OC(C)=O)C(OC(C)=O)C(NC(=O)N(CCCl)N=O)C1OC(C)=O (stereo not given)", "CD2F1 mice, L1210 leukemia ip, survival T/C", "T"),
    ("c1ccc(CNc2nnnc3ccccc23)cc1", "CD2F1 mice, L1210 leukemia ip, survival T/C", "F"),
    ("CCC1(C)CCC2C(CCC3C(C)(C(=O)OC)CCCC23C)C12SCCS2 (stereo not given)", "CD2F1 mice, L1210 leukemia ip, survival T/C", "F"),
]

Task: Would you mind telling me which call this test gave CC(=O)NC1C(OC(C)=O)OC(COC(c2ccccc2)(c2ccccc2)c2ccccc2)C(O)C1OC(C)=O (stereo not given) ?
Output: F

Task: Moving on to the next compound: CC(C)(CO)Nc1ccc([N+](=O)[O-])cc1
Output: F
